System: LXRb homodimer (NR concentration 270 nM)
method-description: PBM binding z-score (relative to random genomic background probes); higher = stronger binding; sequences stand for … in GC…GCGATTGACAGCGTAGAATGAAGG
measured-metric: PBM binding z-score
# respond with the number and nothing more

Ask | Which PBM binding z-score is reported for this sequence? `TTACCAAGGTGAAACGTCGTTGATGCACGCCTTG`
Reply | -0.495

Ask | Now try `CCTTACGGGTGACTCCAGGTTATAGCATCGGAGT` .
Reply | -0.486

Ask | Now try `CTGGAAAGGTCGTGCTCAGGTGAGTATACCAAAC` .
Reply | -0.505
